The reported measurements were obtained from patent US20180327746.

Biological target: T1, alpha-amylase (Homo sapiens, UniProt P0DUB6 P0DUB6:16-511)
T1 sequence: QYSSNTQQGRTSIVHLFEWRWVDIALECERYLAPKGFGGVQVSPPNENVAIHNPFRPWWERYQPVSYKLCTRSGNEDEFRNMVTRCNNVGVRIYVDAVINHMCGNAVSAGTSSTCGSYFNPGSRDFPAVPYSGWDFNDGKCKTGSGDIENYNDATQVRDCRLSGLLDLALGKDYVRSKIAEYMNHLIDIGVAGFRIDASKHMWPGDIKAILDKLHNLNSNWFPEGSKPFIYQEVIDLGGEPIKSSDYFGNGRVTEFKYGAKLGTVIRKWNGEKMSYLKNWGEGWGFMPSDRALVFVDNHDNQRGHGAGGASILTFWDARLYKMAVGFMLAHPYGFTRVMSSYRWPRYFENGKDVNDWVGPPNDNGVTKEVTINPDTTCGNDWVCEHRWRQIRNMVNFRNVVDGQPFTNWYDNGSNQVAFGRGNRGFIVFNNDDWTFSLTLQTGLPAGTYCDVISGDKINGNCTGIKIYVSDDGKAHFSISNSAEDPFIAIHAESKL
Assay: SPR; SPR buffer with 1 mM MgCl2, pH 7.4; Chi2 24.85
Conditions: tags: none stated; commercial human alpha-amylase, Lee Biosolutions; label: 3' poly(dA)20 captured on biotin-poly(dT)20
Quantity Name: pKd
One number for each entry, as −log10 of the molar value.

# input Look up pKd: AML1243KR8m2s49Fw_s20 (ssDNA, KS9 modified T (formula 1) at underlined T, i.e. T 3' of the 5' primer region) DNA: TACCTTAACGCCGCCTATTGCTATGAGTAGTGTTTGTAGGTCTGGCAAAAAAAAAAAAAAAAAAAA
# output 8.37
